For each of the binders below, state its Ca ion level-increasing activity (FLIPR).
- measurement target: human OT7T175 (metastin receptor) (human, UniProt Q969F8 1-398)
- Sequence (Q969F8 whole entry L364H): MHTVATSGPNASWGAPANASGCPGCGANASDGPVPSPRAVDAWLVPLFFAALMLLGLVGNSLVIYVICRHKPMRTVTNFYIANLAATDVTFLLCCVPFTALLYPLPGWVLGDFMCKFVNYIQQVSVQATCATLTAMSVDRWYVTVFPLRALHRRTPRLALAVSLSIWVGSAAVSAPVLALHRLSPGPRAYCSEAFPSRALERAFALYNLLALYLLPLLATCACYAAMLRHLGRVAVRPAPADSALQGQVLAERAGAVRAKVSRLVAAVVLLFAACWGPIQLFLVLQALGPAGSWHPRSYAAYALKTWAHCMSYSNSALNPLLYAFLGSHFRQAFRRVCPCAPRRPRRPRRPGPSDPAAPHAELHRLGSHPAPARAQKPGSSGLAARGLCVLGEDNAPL
- experiment description: cell-based or functional assay
Starred links: 1 amine or outer side, 2 acyl side, 3 side chain; linkers in the order of their positions; H or OH if unused. Non-standard residues stand in square brackets, D forms with d. No end group written: not given here. Ala(2-Qui) = 2-quinolylalanine, O=C([C@H](Cc1ccc2ccccc2n1)N[*:1])[*:2]; Arg(Me) = CNC(=N)NCCC[C@H](N)C(=O)O; Cha = N[C@@H](CC1CCCCC1)C(=O)O; azaGly = NNC(=O)O

The binder listed as [dY]TNSF[azaGly]L[Arg(Me)]F-NH2 (also called Compound No. 241) [des(1)-[D-Tyr2,Thr3,AzaGly7,Arg(Me)9]MS10] has a reported Ca ion level-increasing activity (FLIPR) of 1 x Metastin (1-54)

The binder listed as [dY]WNSFGL[Arg(Me)]F-NH2 (N-terminus assumed; SMILES CNC(=N)NCCC[C@H](NC(=O)[C@H](CC(C)C)NC(=O)CNC(=O)[C@H](Cc1ccccc1)NC(=O)[C@H](CO)NC(=O)[C@H](CC(N)=O)NC(=O)[C@H](Cc1c[nH]c2ccccc12)NC(=O)[C@H](N)Cc1ccc(O)cc1)C(=O)N[C@@H](Cc1ccccc1)C(N)=O, also called Compound No. 217) [des(1)-[D-Tyr2,Arg(Me)9]MS10] has a reported Ca ion level-increasing activity (FLIPR) of 20 x Metastin (1-54)

The binder listed as [dY]N[Cha]NS[Cha]GL[Arg(Me)]W-NH2 (N-terminus assumed; SMILES CNC(=N)NCCC[C@H](NC(=O)[C@H](CC(C)C)NC(=O)CNC(=O)[C@H](CC1CCCCC1)NC(=O)[C@H](CO)NC(=O)[C@H](CC(N)=O)NC(=O)[C@H](CC1CCCCC1)NC(=O)[C@H](CC(N)=O)NC(=O)[C@H](N)Cc1ccc(O)cc1)C(=O)N[C@@H](Cc1c[nH]c2ccccc12)C(N)=O, also called Compound No. 182) [[D-Tyr1,Cha3,6,Arg(Me)9,Trp10]MS10] has a reported Ca ion level-increasing activity (FLIPR) of 5 x Metastin (1-54)

The binder listed as [dY]NINSFGL[Arg(Me)]F-NH2 (N-terminus assumed; SMILES CC[C@H](C)[C@H](NC(=O)[C@H](CC(N)=O)NC(=O)[C@H](N)Cc1ccc(O)cc1)C(=O)N[C@@H](CC(N)=O)C(=O)N[C@@H](CO)C(=O)N[C@@H](Cc1ccccc1)C(=O)NCC(=O)N[C@@H](CC(C)C)C(=O)N[C@@H](CCCNC(=N)NC)C(=O)N[C@@H](Cc1ccccc1)C(N)=O, also called Compound No. 206) [[D-Tyr1,Ile3,Arg(Me)9]MS10] has a reported Ca ion level-increasing activity (FLIPR) of 10 x Metastin (1-54)

The binder listed as YNWNSFGLR[Ala(2-Qui)]-NH2 (N-terminus assumed; SMILES CC(C)C[C@H](NC(=O)CNC(=O)[C@H](Cc1ccccc1)NC(=O)[C@H](CO)NC(=O)[C@H](CC(N)=O)NC(=O)[C@H](Cc1c[nH]c2ccccc12)NC(=O)[C@H](CC(N)=O)NC(=O)[C@@H](N)Cc1ccc(O)cc1)C(=O)N[C@@H](CCCNC(=N)N)C(=O)N[C@@H](Cc1ccc2ccccc2n1)C(N)=O, also called Compound No. 201) [[Ala(2-Qui)10]MS10] has a reported Ca ion level-increasing activity (FLIPR) of 1 x Metastin (1-54)

The binder listed as [dY]NANSF[azaGly]L[Arg(Me)]F-NH2 (N-terminus assumed; SMILES CNC(=N)NCCC[C@H](NC(=O)[C@H](CC(C)C)NC(=O)NNC(=O)[C@H](Cc1ccccc1)NC(=O)[C@H](CO)NC(=O)[C@H](CC(N)=O)NC(=O)[C@H](C)NC(=O)[C@H](CC(N)=O)NC(=O)[C@H](N)Cc1ccc(O)cc1)C(=O)N[C@@H](Cc1ccccc1)C(N)=O, also called Compound No. 235) [[D-Tyr1,Ala3,AzaGly7,Arg(Me)9]MS10] has a reported Ca ion level-increasing activity (FLIPR) of 1 x Metastin (1-54)
